tested on: PTZ-induced clonic convulsions; assay: Antipentylenetetrazole (PTZ) test; format: in vivo; conditions: 0.5 h; mouse, oral (intubated), 30 minutes before PTZ 40 mg/kg iv; read-out: Anti-PTZ, mouse ED50
Record form. Attribute: ED50. Fill in for each entry.
Give bare numbers, in mg/kg.

* O=C1Nc2ccc(Cl)cc2C(c2ccccc2)=NC1O (stereo not drawn) [Oxazepam, reference compound] | 2
* CNC1=Nc2ccc(Cl)cc2C(c2ccccc2)=[N+]([O-])C1 [Chlorodiazepoxide, reference compound] | 7.5

Quick request: ED50 for each listed item, please.
1. O=C1Nc2ccc(Br)cc2C(c2ccccc2)=NC1F (stereo not drawn)
2. CN1C(=O)C(F)N=C(c2ccccc2)c2cc(Cl)ccc21 (stereo not drawn)
3. CN1C(=O)CN=C(c2ccccc2)c2cc(Cl)ccc21 [Diazepam, reference compound]

output:
[0.74, 0.18, 0.49]

Each compound below has a recorded value; state its ED50.
1. CN1C(=O)C(F)N=C(c2ccccc2)c2cc(Br)ccc21 (stereo not drawn)
2. O=C1Nc2ccc(Cl)cc2C(c2ccccc2Cl)=NC1F (stereo not drawn)
3. O=C1Nc2ccc(Cl)cc2C(c2ccccc2)=NC1F (stereo not drawn)
4. CN1C(=O)C(F)N=C(c2ccccc2F)c2cc(Cl)ccc21 (stereo not drawn)

output:
1: 0.22; 2: 0.34; 3: 0.39; 4: 0.12

* * *

Exercise: for every item that follows, state its recorded ED50.
system: tactile pinna reflex; assay: Tactile pinna reflex test (mouse); format: in vivo; conditions: 0.5 h, oral (intubated), 30 minutes
Give bare numbers, in mg/kg.

I need ED50 for every entry listed below, if you could help.
1. O=C1Nc2ccc(Br)cc2C(c2ccccc2)=NC1F (centres unmarked)
2. CN1C(=O)C(F)N=C(c2ccccc2F)c2cc(Cl)ccc21 (centres unmarked)
3. C=CCN1C(=O)C(F)N=C(c2ccccc2)c2cc(Cl)ccc21 (centres unmarked)
4. CNC(=O)N1C(=O)C(F)N=C(c2ccccc2)c2cc(Cl)ccc21 (centres unmarked) [X=Cl, Y=H, Z=[drawing 57]]

output:
100
200
100
36

Below are 6 molecules. Give each one its ED50.
1. CN1C(=O)C(F)N=C(c2ccccc2)c2cc(Cl)ccc21 (centres unmarked)
2. O=C1Nc2ccc(Cl)cc2C(c2ccccc2F)=NC1F (centres unmarked)
3. CN1C(=O)C(F)N=C(c2ccccc2)c2cc(Br)ccc21 (centres unmarked)
4. O=C1Nc2ccc(Br)cc2C(c2ccccc2F)=NC1F (centres unmarked)
5. CNC1=Nc2ccc(Cl)cc2C(c2ccccc2)=[N+]([O-])C1 [Chlorodiazepoxide, reference compound]
6. CN1C(=O)CN=C(c2ccccc2)c2cc(Cl)ccc21 [Diazepam, reference compound]

output:
1: 121; 2: 200; 3: 300; 4: 300; 5: 320; 6: 187

* * *

tested on: PTZ-induced clonic convulsions; experiment: Antipentylenetetrazole (PTZ) test; type: in vivo; settings: 0.5 h; mouse, oral (intubated), 30 minutes before PTZ 40 mg/kg iv; read-out: Anti-PTZ, mouse ED50
Kindly apply the following: 1.0 if ED50 is less than 0.4 mg/kg, 0.0 in every other case.

- CN1C(=O)C(F)N=C(c2ccccc2Cl)c2cc(Cl)ccc21 (stereo not drawn) [X=Cl, Y=Cl, Z=CH3]: 1.0

input: Please indicate whether the reported ED50 of CCN1C(=O)C(F)N=C(c2ccccc2)c2cc(Cl)ccc21 (stereo not drawn) [X=Cl, Y=H, Z=C2 H5] is strictly below 0.4 mg/kg.
output: 0.0

input: I'd appreciate it if you could check whether C=CCN1C(=O)C(F)N=C(c2ccccc2)c2cc(Cl)ccc21 (stereo not drawn) [X=Cl, Y=H, Z=CH2 CHCH2] has ED50 smaller than 0.4 mg/kg.
output: 0.0

input: Criterion: ED50 strictly below 0.4 mg/kg. Is it met by O=C1Nc2ccc(Cl)cc2C(c2ccccc2F)=NC1F (stereo not drawn) [X=Cl, Y=F, Z=H] ?
output: 0.0

input: I wonder whether O=C1Nc2ccc(Br)cc2C(c2ccccc2F)=NC1F (stereo not drawn) [X=Br, Y=F, Z=H] has ED50 below 0.4 mg/kg. Can you tell?
output: 1.0

input: Say whether its ED50 is strictly beneath 0.4 mg/kg. Entry: CN1C(=O)C(F)N=C(c2ccccc2F)c2cc(Br)ccc21 (stereo not drawn) [X=Br, Y=F, Z=CH3]
output: 1.0
